# target-or-system: NGF (nerve growth factor) (Homo sapiens, UniProt P01138 P01138:122-241)
# Sequence (P01138 122-241, one chain of several): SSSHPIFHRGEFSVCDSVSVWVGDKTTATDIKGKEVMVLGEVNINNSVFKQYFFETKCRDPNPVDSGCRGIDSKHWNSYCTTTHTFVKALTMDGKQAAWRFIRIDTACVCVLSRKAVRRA
# protocol-details: cell_activity; neurite; TF-1 0.363
# run-conditions: tags: R&D Systems; chain copies: 2
pIC50: −log10 of the molar value.
measurement-name: pIC50

[[record]]
binder = "GGGUCCUGUCUAAGAGUUUCCGUCUCGUAGACUGUUACCC (ssRNA, 2'-F C/U, dA, 2'-OH G) [SEQ ID NO: 111]"
result = 9.60


Entry source: patent US20140235701
